Target: SARS-CoV-2 full-length spike protein on pseudotyped lentivirus (SARS-CoV-2, UniProt P0DTC2 14-1273)
Assay: cell-based or functional assay
Listed binders paired with reported Pseudo-neutralization IC50

Binder	Pseudo-neutralization IC50
anti-SARS-CoV-2 antibody 1027 (antibody, V domains shown) VH: EVQLVESGGGLVQPGGSLRLSCAASGFTVSSNYMSWVRQAPGKGLEWVSIIYSGGSTFYADSVKGRFTISRDSSKNTLYLQMSSLRAEDTAVYYCARDLDYYGMDVWGQGTTVTVSS VL: DIQLTQSPSFLSAPVGDRVTITCRASQGISSYLAWYQQKPGKAPKLLIYGASTLQSGVPSRFSGSGSGTEFTLTISSLQPEDFATYYCQQLNSYQRFTFGPGTKVEIK	0.01 µg/mL
anti-SARS-CoV-2 antibody 933 (antibody, V domains shown) VH: QVQLVQSGAEVKKPGASVKVSCKASGYTFTTYDINWVRQATGQGLEWMGWMNPNSGYTDSAQKFQGRVTMTRNTSISTAYMELSSLRSEDTAVYYCASGRGVKTYYFDYWGQGTLVTVSS VL: SYELTQPPSVSVSPGQTASITCSGDKLGDKSACWYQQKPGQSPVLVICQDTKRPSGIPERFSGSNSGNTATLTISGTQAMDEADYYCQAWDSRTVVFGGGTKLTVL	0.022 µg/mL
anti-SARS-CoV-2 antibody 1037 (antibody, V domains shown) VH: QITLKESGPTLVKPTQTLTLTCTFSGFSLSTSGVGVGWIRQPPGKALEWLALIYWDDDKRYSPSLKSRLTITKDTSKNQVVLTMTNMDPVDTATYYCAHHTITRINDYWGQGTLVTVSS VL: QSALTQPASVSGSPGQSITISCTATSSDVGAYNYVSWYQQHPGKAPKLMIYDVSKRPSGVSNRFSGSKSGNTASLTISGLQAEDEADYYCSSYTSSSTVFGGGTKLTVL	0.025 µg/mL
